- protocol_description: High temperature test (60° C.)
- Type: physicochemical
- test_context: sealed ampoules, day 0
Can you tell me content (%) for the items I'm about to list?
Supply the numeric figure in %, leaving out any unit text.

Prompt: Note content (%) for the compound shown: C[C@H](Cn1cnc2c(N)ncnc21)OCP(=O)(OCOC(=O)C(C)(C)C)OCOC(=O)C(C)(C)C.O=C(O)/C=C/C(=O)O [TD fumarate]
Response: 99.5

Prompt: Note content (%) for the compound shown: C[C@H](Cn1cnc2c(N)ncnc21)OCP(=O)(OCOC(=O)C(C)(C)C)OCOC(=O)C(C)(C)C [amorphous TD]
Response: 98.5

Prompt: Note content (%) for the compound shown: C[C@H](Cn1cnc2c(N)ncnc21)OCP(=O)(OCOC(=O)C(C)(C)C)OCOC(=O)C(C)(C)C [TD crystalline form B]
Response: 98.8

Prompt: Note content (%) for the compound shown: CC(Cn1cnc2c(N)ncnc21)OCP(=O)(OCOC(=O)C(C)(C)C)OCOC(=O)C(C)(C)C.CC1(C)CCC2(C(=O)O)CCC3(C)C(=CCC4C5(C)CCC(O)C(C)(C)C5CCC43C)C2C1 (centres unmarked) [TD oleanolate]
Response: 99.0

Prompt: Note content (%) for the compound shown: C[C@H](Cn1cnc2c(N)ncnc21)OCP(=O)(OCOC(=O)C(C)(C)C)OCOC(=O)C(C)(C)C [TD crystalline form A]
Response: 99.1

###

Can you tell me amount of solvent (ml), 0.1N NaOH for the items I'm about to list?
- Assay type: physicochemical
- test_context: to dissolve 1 g of sample; 0.1N NaOH
Supply the numeric figure in mL, leaving out any unit text.

Prompt: Note amount of solvent (ml), 0.1N NaOH for the compound shown: C[C@H](Cn1cnc2c(N)ncnc21)OCP(=O)(OCOC(=O)C(C)(C)C)OCOC(=O)C(C)(C)C.O=C(O)/C=C/C(=O)O [TD fumarate]
Response: 65

Prompt: Note amount of solvent (ml), 0.1N NaOH for the compound shown: C[C@H](Cn1cnc2c(N)ncnc21)OCP(=O)(OCOC(=O)C(C)(C)C)OCOC(=O)C(C)(C)C [TD crystalline form B]
Response: 790

Prompt: Note amount of solvent (ml), 0.1N NaOH for the compound shown: C[C@H](Cn1cnc2c(N)ncnc21)OCP(=O)(OCOC(=O)C(C)(C)C)OCOC(=O)C(C)(C)C [amorphous TD]
Response: 613

Prompt: Note amount of solvent (ml), 0.1N NaOH for the compound shown: C[C@H](Cn1cnc2c(N)ncnc21)OCP(=O)(OCOC(=O)C(C)(C)C)OCOC(=O)C(C)(C)C [TD crystalline form A]
Response: 910

###

- protocol_description: High humidity test (room temperature, relative humidity 75±5%)
- Assay type: physicochemical
- test_context: 25° C., day 10
Can you tell me Weight gain after moisture absorption (%) for the items I'm about to list?
Supply the numeric figure in %, leaving out any unit text.

Prompt: Note Weight gain after moisture absorption (%) for the compound shown: C[C@H](Cn1cnc2c(N)ncnc21)OCP(=O)(OCOC(=O)C(C)(C)C)OCOC(=O)C(C)(C)C [TD crystalline form B]
Response: 0.2

Prompt: Note Weight gain after moisture absorption (%) for the compound shown: CC(Cn1cnc2c(N)ncnc21)OCP(=O)(OCOC(=O)C(C)(C)C)OCOC(=O)C(C)(C)C.CC1(C)CCC2(C(=O)O)CCC3(C)C(=CCC4C5(C)CCC(O)C(C)(C)C5CCC43C)C2C1 (centres unmarked) [TD oleanolate]
Response: 0

Prompt: Note Weight gain after moisture absorption (%) for the compound shown: C[C@H](Cn1cnc2c(N)ncnc21)OCP(=O)(OCOC(=O)C(C)(C)C)OCOC(=O)C(C)(C)C [TD crystalline form A]
Response: 5.6

Prompt: Note Weight gain after moisture absorption (%) for the compound shown: C[C@H](Cn1cnc2c(N)ncnc21)OCP(=O)(OCOC(=O)C(C)(C)C)OCOC(=O)C(C)(C)C [amorphous TD]
Response: 2.3

Prompt: Note Weight gain after moisture absorption (%) for the compound shown: C[C@H](Cn1cnc2c(N)ncnc21)OCP(=O)(OCOC(=O)C(C)(C)C)OCOC(=O)C(C)(C)C.O=C(O)/C=C/C(=O)O [TD fumarate]
Response: 0

###

- protocol_description: Light exposure test (4500±500 Lx)
- Format: physicochemical
- test_context: light 4500±500 Lx; day 0
Can you tell me content (%) for the items I'm about to list?
Quick note: number first, unit second.

Prompt: Note content (%) for the molecule shown: C[C@H](Cn1cnc2c(N)ncnc21)OCP(=O)(OCOC(=O)C(C)(C)C)OCOC(=O)C(C)(C)C.O=C(O)/C=C/C(=O)O [TD fumarate]
Response: 99.2%

Prompt: Note content (%) for the molecule shown: C[C@H](Cn1cnc2c(N)ncnc21)OCP(=O)(OCOC(=O)C(C)(C)C)OCOC(=O)C(C)(C)C [TD crystalline form A]
Response: 98.7%

Prompt: Note content (%) for the molecule shown: C[C@H](Cn1cnc2c(N)ncnc21)OCP(=O)(OCOC(=O)C(C)(C)C)OCOC(=O)C(C)(C)C [amorphous TD]
Response: 98.5%

Prompt: Note content (%) for the molecule shown: C[C@H](Cn1cnc2c(N)ncnc21)OCP(=O)(OCOC(=O)C(C)(C)C)OCOC(=O)C(C)(C)C [TD crystalline form B]
Response: 99.2%

Prompt: Note content (%) for the molecule shown: CC(Cn1cnc2c(N)ncnc21)OCP(=O)(OCOC(=O)C(C)(C)C)OCOC(=O)C(C)(C)C.CC1(C)CCC2(C(=O)O)CCC3(C)C(=CCC4C5(C)CCC(O)C(C)(C)C5CCC43C)C2C1 (centres unmarked) [TD oleanolate]
Response: 99.2%

###

- Assay type: physicochemical
- test_context: methanol
recorded_metric: solubility conclusion, methanol

compound="C[C@H](Cn1cnc2c(N)ncnc21)OCP(=O)(OCOC(=O)C(C)(C)C)OCOC(=O)C(C)(C)C [amorphous TD]" recorded_metric="solubility conclusion, methanol" assay_value="freely soluble"
compound="C[C@H](Cn1cnc2c(N)ncnc21)OCP(=O)(OCOC(=O)C(C)(C)C)OCOC(=O)C(C)(C)C [TD crystalline form B]" recorded_metric="solubility conclusion, methanol" assay_value="freely soluble"
compound="C[C@H](Cn1cnc2c(N)ncnc21)OCP(=O)(OCOC(=O)C(C)(C)C)OCOC(=O)C(C)(C)C [TD crystalline form A]" recorded_metric="solubility conclusion, methanol" assay_value="freely soluble"

###

- protocol_description: High temperature test (60° C.)
- Format: physicochemical
- test_context: sealed ampoules, day 5
recorded_metric: content (%)

Prompt: Note content (%) for the compound shown: C[C@H](Cn1cnc2c(N)ncnc21)OCP(=O)(OCOC(=O)C(C)(C)C)OCOC(=O)C(C)(C)C.O=C(O)/C=C/C(=O)O [TD fumarate]
Response: 99.5%

Prompt: Note content (%) for the compound shown: C[C@H](Cn1cnc2c(N)ncnc21)OCP(=O)(OCOC(=O)C(C)(C)C)OCOC(=O)C(C)(C)C [TD crystalline form A]
Response: 98.6%

Prompt: Note content (%) for the compound shown: C[C@H](Cn1cnc2c(N)ncnc21)OCP(=O)(OCOC(=O)C(C)(C)C)OCOC(=O)C(C)(C)C [amorphous TD]
Response: 97.5%

Prompt: Note content (%) for the compound shown: CC(Cn1cnc2c(N)ncnc21)OCP(=O)(OCOC(=O)C(C)(C)C)OCOC(=O)C(C)(C)C.CC1(C)CCC2(C(=O)O)CCC3(C)C(=CCC4C5(C)CCC(O)C(C)(C)C5CCC43C)C2C1 (centres unmarked) [TD oleanolate]
Response: 98.9%

Prompt: Note content (%) for the compound shown: C[C@H](Cn1cnc2c(N)ncnc21)OCP(=O)(OCOC(=O)C(C)(C)C)OCOC(=O)C(C)(C)C [TD crystalline form B]
Response: 97.7%
